system: Mus musculus; assay: Antagonist activity assessed as inhibition of estrogen-stimulated uterine weight gain in ovariectomized mouse at 30 mg/kg, po; type: functional
Reported values of inhibition in vivo at 30 mg/kg for individual entries
I only need the number, in %, no unit after it.

input: Quick one: inhibition in vivo at 30 mg/kg for C[C@]1(c2ccc(O)cc2)CSc2cc(O)ccc2[C@H]1CCCCCCCCCC(CCCC(F)(F)C(F)(F)C(F)(F)C(F)(F)F)C(=O)O (some centres undefined) ?
output: 100

input: Queued: C[C@]12CC[C@@H]3c4ccc(O)cc4C[C@@H](CCCCCCCCC[S+]([O-])CCCC(F)(F)C(F)(F)F)[C@H]3[C@@H]1CC[C@@H]2O (some centres undefined) [FULVESTRANT]
output: 72

Source listed as ChEMBL document CHEMBL1146841.
